Target: Sodium-dependent dopamine transporter (Rattus norvegicus, UniProt P23977)
Sequence (P23977 whole entry): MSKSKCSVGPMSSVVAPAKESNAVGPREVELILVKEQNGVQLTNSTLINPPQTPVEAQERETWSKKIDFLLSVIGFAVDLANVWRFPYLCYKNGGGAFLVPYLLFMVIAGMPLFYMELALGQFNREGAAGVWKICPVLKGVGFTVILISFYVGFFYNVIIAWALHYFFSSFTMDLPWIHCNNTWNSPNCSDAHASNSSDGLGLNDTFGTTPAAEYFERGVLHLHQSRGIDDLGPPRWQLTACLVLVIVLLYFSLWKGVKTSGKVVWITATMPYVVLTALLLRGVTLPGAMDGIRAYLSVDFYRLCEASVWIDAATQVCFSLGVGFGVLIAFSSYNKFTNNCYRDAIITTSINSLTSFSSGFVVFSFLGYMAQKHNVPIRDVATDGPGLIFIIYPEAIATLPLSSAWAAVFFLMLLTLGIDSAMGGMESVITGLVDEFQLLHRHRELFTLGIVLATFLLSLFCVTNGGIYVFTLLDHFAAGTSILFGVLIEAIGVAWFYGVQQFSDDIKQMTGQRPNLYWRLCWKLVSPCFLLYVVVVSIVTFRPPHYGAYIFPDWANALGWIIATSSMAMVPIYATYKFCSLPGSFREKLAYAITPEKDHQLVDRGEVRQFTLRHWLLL
pKi: −log10 of the molar value.
Lab note: compare pKi against 8. Equal or greater, write True. Smaller, write False.

Here's what some known entries look like.
### Prompt State whether the measured pKi reaches 8, counting equality as reaching it, for Fc1ccc(C(OC/C=C2\C[C@H]3CC[C@@H](C2)N3CC2CC2)c2ccc(F)cc2)cc1
### Response True

### Prompt State whether the measured pKi reaches 8, counting equality as reaching it, for C=CCN1[C@@H]2CC[C@H]1C/C(=C/COC(c1ccccc1)c1ccccc1)C2
### Response False

### Prompt State whether the measured pKi reaches 8, counting equality as reaching it, for Fc1ccc(CN2[C@@H]3CC[C@H]2C/C(=C/COC(c2ccc(F)cc2)c2ccc(F)cc2)C3)cc1
### Response True

More entries:
### Prompt State whether the measured pKi reaches 8, counting equality as reaching it, for CN1[C@@H]2CC[C@H]1C/C(=C/COC(c1ccccc1)c1ccccc1)C2
### Response False

### Prompt State whether the measured pKi reaches 8, counting equality as reaching it, for CCN1[C@@H]2CC[C@H]1C/C(=C/COC(c1ccc(F)cc1)c1ccc(F)cc1)C2
### Response False
